assay_system: h5-HT2A receptor (Homo sapiens, UniProt P28223)
Construct: expressed in transfected cells; host or cells: HEK 293 cells (membrane preparations)
Sequence (P28223 whole entry): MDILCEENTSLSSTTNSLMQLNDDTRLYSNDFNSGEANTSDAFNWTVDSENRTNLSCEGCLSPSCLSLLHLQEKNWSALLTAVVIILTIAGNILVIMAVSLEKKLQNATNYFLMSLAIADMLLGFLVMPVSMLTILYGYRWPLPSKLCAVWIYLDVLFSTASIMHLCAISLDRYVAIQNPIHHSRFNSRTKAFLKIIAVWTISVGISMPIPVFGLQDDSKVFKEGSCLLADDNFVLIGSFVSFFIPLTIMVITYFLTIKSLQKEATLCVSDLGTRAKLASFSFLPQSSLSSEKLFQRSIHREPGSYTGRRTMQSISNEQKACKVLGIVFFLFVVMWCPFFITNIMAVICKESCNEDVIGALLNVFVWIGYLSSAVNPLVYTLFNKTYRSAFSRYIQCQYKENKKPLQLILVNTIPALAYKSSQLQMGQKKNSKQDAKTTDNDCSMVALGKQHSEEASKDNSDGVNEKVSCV
protocol_text: Radioligand binding at h5-HT2A receptor ([3H]ketanserin)
assay_setup: binding ratio
Selectivity 5-HT2A vs. 5-HT1A values by entry

{"compound": "COc1cc(CCN)cc(OC)c1OCCC(F)(F)F", "Selectivity 5-HT2A vs. 5-HT1A": ">1"}
{"compound": "COc1cc(CCN)cc(OC)c1OCCCF", "Selectivity 5-HT2A vs. 5-HT1A": "<1"}
{"compound": "COc1cc(CC(C)N)cc(OC)c1OCCF (stereo not shown)", "Selectivity 5-HT2A vs. 5-HT1A": ">1"}
{"compound": "COc1cc(CCN)cc(OC)c1OC(C)C", "Selectivity 5-HT2A vs. 5-HT1A": ">1"}
